Hi there, I'd appreciate the recorded IC50 for every entry that follows.
target: IDH1 R132H (Homo sapiens, UniProt O75874, R132H); assay: In vitro assay for IDH1 R132H inhibitors (NADPH/aKG, resazurin detection); format: biochemical; conditions: Table 4B; 0.2 μg/ml IDH1 R132H, 50 minutes at room temperature; read-out: IC50, IDH1 R132H Inhibition
Sequence (O75874 whole entry R132H): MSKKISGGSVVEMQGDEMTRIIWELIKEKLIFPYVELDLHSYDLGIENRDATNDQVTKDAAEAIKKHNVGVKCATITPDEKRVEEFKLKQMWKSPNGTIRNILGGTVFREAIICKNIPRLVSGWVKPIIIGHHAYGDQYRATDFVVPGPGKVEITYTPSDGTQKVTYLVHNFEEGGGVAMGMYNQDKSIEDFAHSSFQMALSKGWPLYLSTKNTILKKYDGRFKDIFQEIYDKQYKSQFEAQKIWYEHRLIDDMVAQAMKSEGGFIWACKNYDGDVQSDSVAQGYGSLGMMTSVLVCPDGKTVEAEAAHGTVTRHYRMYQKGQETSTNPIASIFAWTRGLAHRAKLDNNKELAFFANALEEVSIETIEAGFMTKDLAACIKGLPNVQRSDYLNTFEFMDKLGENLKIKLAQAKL

Entry Cc1ccccc1C(C(=O)NC1CCCCC1)N(C(=O)CN1CCCc2ccccc21)c1cccc(F)c1 (stereo not shown) [Compound 160] — recorded IC50 = ≤ 100 nM

For this compound ( COC(=O)NCC(=O)N(c1ccc(F)cc1)C(C(=O)NC1CCCCC1)c1ccccc1C (stereo not shown) [Compound 353] ), measured IC50 is 100 to 1000 nM

Measured IC50 of COc1ccccc1NCC(=O)N(c1cccc(F)c1)C(C(=O)NC1CCCCC1)c1ccccc1C (stereo not shown) [Compound 218] : ≤ 100 nM

compound Cc1ccccc1C(C(=O)NC1CCCCC1)N(C(=O)CNc1ccnc(F)c1)c1cccc(F)c1 (stereo not shown) [Compound 280] , IC50 observed: 100 to 1000 nM

For this compound ( Cc1ccccc1C(C(=O)NC1CCCCC1)N(C(=O)Cc1n[nH]c2ccccc12)c1cccc(F)c1 (stereo not shown) [Compound 289] ), measured IC50 is ≤ 100 nM

Notebook: O=C(NC1CCCCC1)C(c1ccccc1Cl)N(C(=O)Cc1cscn1)c1cccc(F)c1 (stereo not shown) [Compound 307] , IC50 read as ≤ 100 nM

Measured IC50, CCC(=O)N1CCCCC1C(=O)N(c1cccc(F)c1)C(C(=O)NC1CCCCC1)c1ccccc1C (stereo not shown) [Compound 328] : 100 to 1000 nM

Short answer for Cc1ccccc1C(C(=O)NC1CCCCC1)N(C(=O)Cn1ccnc1C)c1cccc(NC(=O)OC(C)(C)C)c1 (stereo not shown) [Compound 225] : IC50 was 100 to 1000 nM

The reported IC50 of the compound Cc1ccccc1C(C(=O)NC1CCCCC1)N(C(=O)CNc1ccc(-c2nnco2)cc1)c1cccc(F)c1 (stereo not shown) [Compound 290] was ≤ 100 nM

Record Cc1ccccc1C(C(=O)NC1CCOCC1)N(C(=O)CN1CCc2ccccc21)c1cccc(F)c1 (stereo not shown) [Compound 195] , field IC50: 100 to 1000 nM

Entry O=C(NC1CCCCC1)C(c1cc(F)ccc1Br)N(C(=O)Cc1cccs1)c1cccc(F)c1 (stereo not shown) [Compound 129] ; IC50 = 100 to 1000 nM

IC50 for Cc1ccccc1C(C(=O)NC1CCOCC1)N(C(=O)CN(C)c1ccccc1)c1cccc(F)c1 (stereo not shown) [Compound 183] is 100 to 1000 nM

// sample Cc1ccccc1C(C(=O)NC1CCCCC1)N(C(=O)COCc1cnccn1)c1cccc(F)c1 (stereo not shown) [Compound 282] , its IC50 was 100 to 1000 nM

Input Cc1ccccc1C(C(=O)NC1CCCCC1)N(C(=O)Cc1cccs1)c1cccc(N2CCOCC2)c1 (stereo not shown) [Compound 123] . Output IC50: 100 to 1000 nM

Record summary for Cc1ccccc1C(C(=O)NC1CCCCC1)N(C(=O)Cc1c[nH]c2ccccc12)c1cccc(F)c1 (stereo not shown) [Compound 126] : reported IC50 = ≤ 100 nM

Recorded IC50 (compound Cc1ccccc1C(C(=O)NC1CCCCC1)N(C(=O)Cn1c(C)nc2ccccc21)c1ccn(C)n1 (stereo not shown) [Compound 224] ): 100 to 1000 nM

----------
target: IDH1 R132H (Homo sapiens, UniProt O75874, R132H); assay: In vitro assay for IDH1 R132H inhibitors (NADPH/aKG, resazurin detection); assay type: biochemical; settings: Table 4A; 0.2 μg/ml IDH1 R132H, 50 minutes at room temperature; read-out: IC50 (uM), IDH1 R132H Inhibition
readoutLabel: IC50

Summary for this compound, CCC(C(=O)NC1CCCC1)N(C(=O)Cc1cccs1)c1cccc(F)c1 (centres unmarked) : IC50 is ≥ 100 µM

Recorded result, O=C(NC1CCCC1)C(c1ccc(C(F)(F)F)cc1)N(C(=O)Cc1cccs1)c1cccc(F)c1 (centres unmarked) , IC50: ≥ 100 µM

Noted for COc1cccc(C(C(=O)NC2CCCCC2)N(C(=O)Cc2cccs2)c2cccc(F)c2)c1 (centres unmarked) : its IC50 reads 0.1 to 1 µM

For reference, reported IC50 for Cc1ccccc1C(C(=O)NC1CCCCC1)N(C(=O)Cc1cccs1)c1ccc2c(c1)OCO2 (centres unmarked) stands at 0.1 to 1 µM

Sample Cc1ccccc1C(C(=O)NC1CCCCC1)N(C(=O)Cc1cccs1)C1CCCC1 (centres unmarked) ; IC50 observed: 1 to 10 µM

Notebook: Cc1ccc(N(C(=O)c2sc(C)nc2C)C(C(=O)NC2CCCC2)c2ccccc2)cc1 (centres unmarked) , IC50 read as 1 to 10 µM

Reported IC50 ( O=C(NC1CCCCC1)C(c1ccncc1)N(C(=O)Cc1cccs1)c1cccc(F)c1 (centres unmarked) ) = 1 to 10 µM

Value of IC50 reported for the compound CC(=O)c1cccc(C(C(=O)NC2CCCCC2)N(C(=O)Cc2cccs2)c2cccc(F)c2)c1 (centres unmarked) is ≥ 100 µM

----------
target: IDH1 R132H (Homo sapiens, UniProt O75874, R132H); experiment: In vitro assay for IDH1 R132H inhibitors (NADPH/aKG, resazurin detection); type: biochemical; details: Table 4B; 0.2 μg/ml IDH1 R132H, 50 minutes at room temperature; read-out: IC50, IDH1 R132H Inhibition
readoutLabel: IC50

Kindly note the recorded IC50 for Cc1ccccc1C(C(=O)NC1CCCCC1)N(Cc1cccs1)C(=O)Cn1ccnc1 (stereo not shown) [Compound 204] , which is 100 to 1000 nM

For Cc1ccccc1C(C(=O)NC1CCCCC1)N(C(=O)CN1CCN(C(=O)OC(C)C)CC1)c1cccc(F)c1 (stereo not shown) [Compound 250] the compound record lists IC50 as 100 to 1000 nM

Form: compound = Cc1ccccc1C(C(=O)NC1CCCCC1)N(C(=O)CNc1ccc(F)cc1)c1cccc(F)c1 (stereo not shown) [Compound 201] ; IC50 = ≤ 100 nM

Sample Cc1ccccc1C(C(=O)NC1CCCCC1)N(C(=O)CNCc1cnccn1)c1cccc(F)c1 (stereo not shown) [Compound 254] ; IC50 observed: 100 to 1000 nM

Given item Cc1ccccc1[C@@H](C(=O)NC1CCCCC1)N(C(=O)[C@@H]1CCCN1C(=O)OC(C)(C)C)c1cccc(F)c1 [Compound 343] , the value recorded as its IC50 is 100 to 1000 nM

Record Cc1ccccc1C(C(=O)NC1CCCCC1)N(C(=O)CNCCc1ccccc1)c1cccc(F)c1 (stereo not shown) [Compound 154] . Reported IC50: 100 to 1000 nM

Memo: Cc1nccn1CC(=O)N(c1cccc(F)c1)C(C(=O)NC1CCCCC1)c1ccccc1 (stereo not shown) [Compound 295] , reported IC50: 100 to 1000 nM

Looking up Cc1ccccc1C(C(=O)NC1CCCCC1)N(C(=O)CNCc1ccccc1)c1cccc(F)c1 (stereo not shown) [Compound 152] , I see its IC50 listed as 100 to 1000 nM

Looking up COC(=O)N1CCCC[C@H]1C(=O)N(c1cccc(F)c1)[C@H](C(=O)NC1CCCCC1)c1ccccc1C [Compound 336] , I found its IC50 recorded as 100 to 1000 nM

So, Cc1ccccc1C(C(=O)NC1CCCCC1)N(C(=O)c1ccc2c(c1)OCO2)c1cccc(F)c1 (stereo not shown) [Compound 132] ? Its IC50 was 100 to 1000 nM

Lab note: Cc1ccccc1C(C(=O)NC1CCCCC1)N(C(=O)Cn1ccnc1C)c1cccc(-c2ccnn2C)c1 (stereo not shown) [Compound 315] gave IC50 of 100 to 1000 nM

Per the record, Cc1ccccc1C(C(=O)NC1CCCCC1)N(C(=O)CNc1cccc(C#N)c1)c1cccc(F)c1 (stereo not shown) [Compound 265] has IC50 of ≤ 100 nM

The recorded IC50 for entry Cc1ccccc1C(C(=O)NC1CCCCC1)N(C(=O)Cc1cccs1)c1ccccc1Cl (stereo not shown) [Compound 147] equals 100 to 1000 nM

Form field IC50, entry Cc1ccccc1C(C(=O)Nc1ccccc1Br)N(C(=O)Cc1cccs1)c1cccc(F)c1 (stereo not shown) [Compound 164] : 100 to 1000 nM

Recorded IC50 (compound Cc1ccccc1C(C(=O)NC1CCCCC1)N(C(=O)Cn1ccc(F)cc1=N)c1cccc(F)c1 (stereo not shown) [Compound 240] ): ≤ 100 nM

Recorded IC50 (compound Cc1ccccc1C(C(=O)NC1CCCCC1)N(c1cccc(F)c1)S(=O)(=O)Cc1ccccc1 (stereo not shown) [Compound 393] ): 100 to 1000 nM

What the record says about Cc1ccccc1C(C(=O)NC1CCCCC1)N(C(=O)Cn1ccnc1C)c1cccc(N2CCOCC2)c1 (stereo not shown) [Compound 231] : IC50 is 100 to 1000 nM

response.value for Cc1ccccc1C(C(=O)NC1CCCCC1)N(C(=O)Cc1cn(C)c2ccccc12)c1ccn(C)n1 (stereo not shown) [Compound 244] (field: IC50) = 100 to 1000 nM

Cc1ccccc1C(C(=O)NC1CCCCC1)N(C(=O)Cc1cccs1)c1cccc(Br)c1 (stereo not shown) [Compound 146] yielded IC50 of 100 to 1000 nM

Reported IC50 ( CC(=O)N1CCC[C@@H]1C(=O)N(c1cccc(F)c1)[C@H](C(=O)NC1CCCCC1)c1ccccc1C [Compound 371] ) = 100 to 1000 nM

Reported IC50 for Cc1ccccc1C(C(=O)NC1CC2CC2C1)N(C(=O)Cn1ccc2ncccc21)c1cccc(F)c1 (stereo not shown) [Compound 325] was 100 to 1000 nM

The recorded IC50 for entry Cc1ccccc1C(C(=O)NC1CCCCC1)N(C(=O)CN1Cc2ccccc2C1)c1cccc(F)c1 (stereo not shown) [Compound 188] equals 100 to 1000 nM

Just so you know, measured IC50 for COC(=O)N1CCCC1C(=O)N(c1cccc(F)c1)C(C(=O)NC1CCCCC1)c1ccccc1C (stereo not shown) [Compound 306] came out at ≤ 100 nM

For Cc1ccccc1C(C(=O)NC1CCCCC1)N(Cc1cccs1)C(=O)CN1Cc2ccccc2C1 (stereo not shown) [Compound 187] the compound record lists IC50 as 100 to 1000 nM

# compound Cc1ccccc1C(C(=O)NC1CCCCC1)N(C(=O)CNCCc1cccnc1)c1cccc(F)c1 (stereo not shown) [Compound 193] ; its IC50 = 100 to 1000 nM

Consider Cc1ccccc1[C@@H](C(=O)NC1CCCCC1)N(C(=O)[C@@H]1CCCCN1C(=O)OC(C)C)c1cccc(F)c1 [Compound 339] . Its measured IC50 is 100 to 1000 nM

The measured IC50 associated with Cc1ccccc1C(C(=O)NC1CC2CC2C1)N(C(=O)CNc1cccnc1F)c1cccc(F)c1 (stereo not shown) [Compound 377] reads 100 to 1000 nM

Entry Cc1ccccc1C(C(=O)NC1CCCCC1)N(C(=O)C(=O)c1c[nH]c2ccccc12)c1cccc(F)c1 (stereo not shown) [Compound 262] , IC50 reported as 100 to 1000 nM

IC50 recorded for this compound, Cc1ccccc1C(C(=O)NC1CCCCC1)N(C(=O)CNc1ccc(F)cn1)c1cccc(F)c1 (stereo not shown) [Compound 253] , is ≤ 100 nM

For reference, reported IC50 for Cc1ccccc1C(C(=O)NC1CCCCC1)N(C(=O)Cn1ccc2ccccc21)c1cccc(F)c1 (stereo not shown) [Compound 271] stands at ≤ 100 nM

The reported value for Cc1cnn(CC(=O)N(c2cccc(F)c2)C(C(=O)NC2CCCCC2)c2ccccc2C)c1 (stereo not shown) [Compound 309] in terms of IC50 is 100 to 1000 nM
